# Test system: Low density cholesterol (Chl small) plaque particles
# test summary: Mass spectroscopy proteomics, semi-quantitative binding affinity of serum proteins (plaqueproteome, Table 2)
# Set-up: species or system human
# test parameters: higher number = stronger affinity
For each record, write down the corresponding Semi-quantitative analysis of proteins binding to different plaque particles: Chl small.
API doc: respond with a numeric literal and nothing else, no unit.

INPUT: Please give the measured Semi-quantitative analysis of proteins binding to different plaque particles: Chl small for this molecule: Platelet basic protein (protein) SSTKGQTKRNLAKGKEESLDSDLYAELRCMCIKTTSGIHPKNIQSLEVIGKGTHCNQVEVIATLKDGRKICLDPDAPRIKKIVQKKLAGDESAD
OUTPUT: 0

INPUT: Same for Apolipoprotein M (protein) MFHQIWAALLYFYGIILNSIYQCPEHSQLTTLGVDGKEFPEVHLGQWYFIAGAAPTKEELATFDPVDNIVFNMAAGSAPMQLHLRATIRMKDGLCVPRKWIYHLTEGSTDLRTEGRPDMKTELFSSSCPGGIMLNETGQGYQRFLLYNRSPHPPEKCVEEFKSLTSCLDSKAFLLTPRNQEACELSNN
OUTPUT: 0

INPUT: Same for Isoform 2 of C4b-binding protein beta chain (protein) ASDEHCPELPPVDNSIFVAKEVEGQILGTYVCIKGYHLVGKKTLFCNASKEWDNTTTECRLGHCPDPVLVNGEFSSSGPVNVSDKITFMCNDHYILKGSNRSQCLEDHTWAPPFPICKSRDCDPPGNPVHGYFEGNNFTLGSTISYYCEDRYYLVGVQEQQCVDGEWSSALPVCKLIQEAPKPECEKALLAFQESKNLCEAMENFMQQLKESGMTMEELKYSLELKKAELKAKLL
OUTPUT: 1

INPUT: Same for Alpha-1-acid glycoprotein 2 (protein) QIPLCANLVPVPITNATLDRITGKWFYIASAFRNEEYNKSVQEIQATFFYFTPNKTEDTIFLREYQTRQNQCFYNSSYLNVQRENGTVSRYEGGREHVAHLLFLRDTKTLMFGSYLDDEKNWGLSFYADKPETTKEQLGEFYEALDCLCIPRSDVMYTDWKKDKCEPLEKQHEKERKQEEGES
OUTPUT: 7

INPUT: Same for Ig gamma-2 chain C region (protein) ASTKGPSVFPLAPCSRSTSESTAALGCLVKDYFPEPVTVSWNSGALTSGVHTFPAVLQSSGLYSLSSVVTVPSSNFGTQTYTCNVDHKPSNTKVDKTVERKCCVECPPCPAPPVAGPSVFLFPPKPKDTLMISRTPEVTCVVVDVSHEDPEVQFNWYVDGVEVHNAKTKPREEQFNSTFRVVSVLTVVHQDWLNGKEYKCKVSNKGLPAPIEKTISKTKGQPREPQVYTLPPSREEMTKNQVSLTCLVKGFYPSDISVEWESNGQPENNYKTTPPMLDSDGSFFLYSKLTVDKSRWQQGNVFSCSVMHEALHNHYTQKSLSLSPGK
OUTPUT: 14
